Please go through the items and note down their AUC of viability dose-response curve.
System: NOMO1
Assay: AUC of viability dose-response curve (% viability x log10 dose units); higher = less sensitive
Conditions: RPMI 5 mM glucose + 10% dialyzed FBS; 48 h
Just the number.

Entry C[S+](=O)([O-])c1ccc(C(=O)Nc2ccc(Cl)c(-c3ccccn3)c2)c(Cl)c1 : reported AUC of viability dose-response curve = ? 465

AUC of viability dose-response curve for CC[C@@]1(O)C(=O)OC\C2=C1\C=C\3N(CC4=C3N=C5C=CC=CC5=C4)C2=O ? 246

Which AUC of viability dose-response curve reading was recorded for the compound C[C@H]1CC2C3CCC/4=C/C(=O)/C=C\[C@]4(C)[C@@]3(F)[C@@H](O)C[C@]2(C)[C@@]1(O)C(=O)CO (some centres undefined) ? 466

Return reported AUC of viability dose-response curve; argument: CC(=O)Nc1ccc(O)cc1 463

Endpoint output: AUC of viability dose-response curve of Cc1cc2c(cc1C1(c3ccc(C(=O)O)cn3)CC1)C(C)(C)CCC2(C)C . Value? 417

Request the reported AUC of viability dose-response curve associated with NC(=O)c1cccc2cn(-c3ccc([C@@H]4CCCNC4)cc3)nc12 470

Form field: reported AUC of viability dose-response curve of CCCCCCOC(=O)/N=C(/N)c1ccc(NCc2nc3cc(C(=O)N(CCC(=O)OCC)c4ccccn4)ccc3n2C)cc1 449

Which AUC of viability dose-response curve is listed for Nc1cccc2c1CN([C@H]1CCC(=O)NC1=O)C2=O ? 466

# query: AUC of viability dose-response curve of entry N#Cc1ccnc(Nc2cc(C3CCN(C4COC4)CC3)cc(N3CCC(F)(F)C3)n2)c1 426

----------
Test system: NOMO1
Experiment: cell viability relative to DMSO control; higher = less cytotoxic
Details: HPLM + 10% dialyzed FBS; 48 h; 46.1 µM
For each entry below, report its cell viability value.
Field format: number, assumed %, no unit text.

I have this compound here, COc1ccc2[nH]c([S+]([O-])Cc3ncc(C)c(OC)c3C)nc2c1 (centres undefined) , and I need its recorded cell viability. 59.8

Which value of cell viability has been reported for C[C@H]1[C@@H](C(=O)C[C@H]2O[C@@H]3O[C@]4(C)CC[C@H]5[C@H](C)CC[C@@H]([C@H]2C)[C@@]35OO4)O[C@@H]2O[C@]3(C)CC[C@H]4[C@H](C)CC[C@@H]1[C@@]24OO3 in the records? 21

Consider the compound shown here: C[C@]12CC[C@H]3[C@@H](C\C=C/4C[C@@H](O)CC[C@]34C)[C@@H]1CCC2=O What is its recorded cell viability? 84.7

Can you look up the measured cell viability of COc1cc([C@H]2Oc3cc([C@H]4Oc5cc(O)cc(O)c5C(=O)[C@@H]4O)ccc3O[C@@H]2CO)ccc1O for me? 82

----------
Tested on: P12-Ichikawa
Test: cell viability relative to DMSO control; higher = less cytotoxic
Conditions: RPMI 5 mM glucose + 10% FBS; 48 h; 0.00234 µM
Can you tell me cell viability for the items I'm about to list?
Provide only the numeric value, understood in %.

Any idea what its cell viability is? The molecule is COc1ncnc(N[S+](=O)([O-])c2ccc(N)cc2)c1OC 111

Bench note: what cell viability did CN[C@@H](C)C(=O)N[C@H]1CN(C(=O)CC(C)C)CC[C@H]2CC[C@@H](C(=O)NC(c3ccccc3)c3ccccc3)N2C1=O show? 110

Entry under review: CN1CCC[C@@H]1CCO[C@](C)(c1ccccc1)c1ccc(Cl)cc1 . Reported cell viability? 104

I am curious: what cell viability value has been reported for O=C(c1ccc(F)c(F)c1Nc1ccc(I)cc1F)N1CC(O)([C@@H]2CCCCN2)C1 ? 102

Can you share its cell viability? I mean this molecule: ClC1=CC\2=C(OC3=C(C=CC=C3)\N=C2N4CCNCC4)C=C1 105

Item CCN(C(=O)C/1=C(O)/C2=C(C=CC=C2Cl)N(C)C1=O)C3=CC=CC=C3 has what recorded cell viability? 97

Given the entry N#Cc1ccnc(Nc2cc(C3CCN(C4COC4)CC3)cc(N3CCC(F)(F)C3)n2)c1 , report its measured cell viability. 104

Using the record for Oc1cccc(-c2nc(N3CCOCC3)c3oc4ncccc4c3n2)c1 , report its cell viability. 114

// cell viability lookup, key: C[S+](=O)([O-])c1cccc(CNc2nc(Nc3ccc4c(c3)CCC(=O)N4)ncc2C(F)(F)F)c1 120
